target: X-box-binding protein 1 (Homo sapiens) (UniProt P17861); assay: XBP1 reporter suppression in cells – counter-screen, dose response (AID 504313); conditions: XBP1 reporter cell assay, percent of control;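 note: CHO cells carrying an XBP1 reporter stimulated with tunicamycin; potency is for inhibition of the tunicamycin-induced reporter signal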
The source made the active and inactive calls. The rule behind the calls is not given here.
MEASURED PARAMETER: IC50

See these solved cases before continuing.
{"columns": ["CHEM SMILES", "IC50"],
 "data": [
  ["Fc1cccc(-c2nnn3c2nc(Cl)c2ccccc23)c1", "inactive"],
  ["COC(=O)Oc1ccc(/C=N/NC(=O)CSCc2ccccc2Br)cc1OC", "> 10 µM (inactive)"],
  ["O=S(=O)(Nc1ccccc1)c1ccc(Oc2ncc(C(F)(F)F)cc2Cl)cc1", "2.15 µM"],
  ["Cn1c(=O)[nH]c(=O)c2c1nc([N+](=O)[O-])n2Cc1ccccc1", "inactive"]
]}

Endpoint output: IC50 of Cc1cc(/C=N/n2cnnc2)c(C)n1-c1ccc(OCc2ccccc2F)cc1 . Value?
4.85 µM

Next molecule up: OC1(c2cccc(C(F)(F)F)c2)CCN(c2ncnc3c2[nH]c2ccc(F)cc23)CC1
3.86 µM

Next molecule up: OCCCNc1nccc(-c2cc(Nc3cccc(Cl)c3)ncn2)n1
0.3 µM

###

target: X-box-binding protein 1 (Homo sapiens); test: XBP1 reporter suppression in cells – counter-screen, dose response (AID 504313); settings: XBP1 reporter cell assay, percent of control;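 note: CHO cells carrying an XBP1 reporter stimulated with tunicamycin; potency is for inhibition of the tunicamycin-induced reporter signal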
Active and inactive are the calls of the source. How the calls were made is not given here.
Hello, when you answer, please use one of the following outcomes: 1 (active), 0 (inactive)

For Cc1ccc(C(C)C)c(OCC(=O)N/N=C/C2CCCCC2)c1 , what call appears in the results of this test?
0

Next compound up: CC(C)C[C@H](NC(=O)c1nc[nH]c1C(=O)NCC(=O)OC(C)(C)C)C(=O)OCc1ccccc1
0

Next compound up: CCCCCCOC(=O)c1ccccc1N
0

Next compound up: O=C(Nc1ccc(Cl)cc1)Nc1ccc(N2CCCC2)c(S(=O)(=O)Nc2ccccc2Cl)c1
0

Next compound up: O=C(CCl)N1CCN2C(=O)c3ccccc3C12c1ccc(Cl)cc1 (centres undefined)
0

Next compound up: O=S1(=O)C=C(Sc2nc3ccccc3s2)c2ccccc21
1

Next compound up: CCOC(=O)c1cc(-c2cccs2)nc2c1c(C)nn2-c1ccccn1
0

Next compound up: O=C(c1ccc(Cl)cc1)N1CCC(O)(CSc2ccc(Cl)cc2Cl)CC1
0

Next compound up: COc1c(CC=C(C)C)cc(C2CC(=O)c3c(O)cc(O)cc3O2)cc1CC=C(C)C (centres undefined)
0

Next compound up: COc1ccc(C(=O)c2c(C(F)(F)F)oc3c2C(=O)c2ccccc2C3=O)cc1
0

Next compound up: Cc1cccc(NC2=C/C(=N/S(=O)(=O)c3cccs3)c3ccccc3C2=O)c1
1

Next compound up: Cc1nn(Cc2c(Cl)cccc2Cl)c(C)c1NC(=O)c1cc(C(C)C)on1
0

Next compound up: C=CCSc1nc2ccccc2n1C(=O)/C=C/c1cc(OC)c(OC)c(OC)c1
1

Next compound up: CC(C)(C)C(=O)Nc1ccc(-c2nc3ccccc3c(=O)o2)cc1
1

Next compound up: O=C(CNC1CCCCCC1)Nc1ccccc1N1CCCCC1
0

Next compound up: C=C1C(=O)O[C@@H]2C[C@@H](C)[C@@H]3C=CC(=O)[C@@]3(C)[C@@H](OC(C)=O)[C@H]12
1

Next compound up: CCC1CCCCN1S(=O)(=O)c1ccc(C(=O)Nc2nnc(-c3ccccc3Cl)o2)cc1 (centres undefined)
0

Next compound up: COc1cc(CNCc2ccccn2)ccc1OCc1ccc(Cl)cc1Cl
0

Next compound up: CCCC(=O)N1CCN(c2ccc(NC(=O)c3cc4ccccc4o3)cc2Cl)CC1
0

###

target: X-box-binding protein 1 (Homo sapiens); test: XBP1 reporter suppression in cells – counter-screen, dose response (AID 504313); settings: XBP1 reporter cell assay, percent of control;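 note: CHO cells carrying an XBP1 reporter stimulated with tunicamycin; potency is for inhibition of the tunicamycin-induced reporter signal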
Activity calls are given as the source filed them. No rule for the calls is given here.
Hello, when you answer, please use one of the following outcomes: label 1 = active, label 0 = inactive

For O/N=C(\c1ccc(Cl)cc1Cl)c1ncc(C(F)(F)F)cc1Cl , what call appears in the results of this test?
label 1

Next compound up: Cc1ccc2nc(-c3cc(-c4ccccc4)no3)cn2c1
label 0

Next compound up: Cc1ccc(-c2ccc(/C=C3\C(=O)ON=C3c3ccccc3)o2)c([N+](=O)[O-])c1
label 0

Next compound up: O=C(Nc1ccc([N+](=O)[O-])cc1)Nc1nc(-c2ccc(Cl)s2)cs1
label 1

Next compound up: Cc1cccc(NC(=S)NC(NC(=O)OCc2ccccc2)C(Cl)(Cl)Cl)c1 (stereo not given)
label 0

Next compound up: NS(=O)(=O)c1ccc(N/N=C2/CCCCC2C2CCCCC2)c([N+](=O)[O-])c1 (stereo not given)
label 1

Next compound up: CC(C)(C)c1ccc(OCC(=O)N/N=C/C2CC=CCC2)cc1 (stereo not given)
label 0

Next compound up: CCOc1cc(S(=O)(=O)Nc2ccc(CC)cc2)ccc1Cl
label 0

Next compound up: O=C(Nc1cccc(F)c1)N(Cc1ccc(Cl)cc1)CC(O)C(F)(F)F (stereo not given)
label 0

Next compound up: Cc1cc(/C=N/n2cnnc2)c(C)n1-c1ccc(OCc2ccc(F)cc2)cc1
label 0

###

biological target: X-box-binding protein 1 (Homo sapiens); assay: XBP1 reporter suppression in cells – counter-screen, dose response (AID 504313); conditions: XBP1 reporter cell assay, percent of control;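 note: CHO cells carrying an XBP1 reporter stimulated with tunicamycin; potency is for inhibition of the tunicamycin-induced reporter signal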
The source made the active and inactive calls. The rule behind the calls is not given here.
Hello, when you answer, please use one of the following outcomes: Y = active, N = inactive

For O=C1C(N2CCOCC2)=C(n2nnc3ccccc32)C(=O)c2ccccc21 , what call appears in the results of this test?
N

Next molecule up: C#CC(=O)N(c1ccc(OC)c(OC)c1)C(C(=O)NC1CCCC1)c1cccs1 (stereo not drawn)
N

Next molecule up: Cc1cc(C)c(S(=O)(=O)ON2C(=O)c3ccccc3C2=O)cc1C
N

Next molecule up: COc1ccc(OCc2cccc(C(=O)O)c2)cc1
Y

Next molecule up: C=CCn1c(CCNC(=O)c2ccc(Cl)c(Cl)c2)nnc1SCCOc1ccc(OC)cc1
N

Next molecule up: CC1CCN(C(=O)/C(=C/c2ccccc2Cl)c2ccccc2)CC1
N

Next molecule up: Oc1ccc(/C=N/N2CCN(C3c4ccccc4-c4ccccc43)CC2)c(O)c1
N

Next molecule up: Cc1ccc(C(=O)CC(=O)c2cc(Cl)ccc2O)cc1
N

Next molecule up: Cc1cc(C)n(-c2nc(N(c3ccccc3)c3ccccc3)nc(-n3nc(C)cc3C)n2)n1
N

Next molecule up: O=C(N=Nc1c(O)n(Cc2ccccc2)c2ccccc12)c1cc2ccccc2cc1O
N

Next molecule up: COc1ccc(NC(=O)c2cc3cccc(OC)c3oc2=Nc2ccc(C(=O)O)cc2)cc1OC
N

Next molecule up: Cc1ccc2[nH]c3c(c2c1)CN(C(=O)CN1CCN(c2cccc(C)c2C)CC1)CC3
N

Next molecule up: Cc1ccc(C)c(NC(=S)NC(NC(=O)/C=C/c2ccccc2)C(Cl)(Cl)Cl)c1 (stereo not drawn)
N

Next molecule up: Cc1cc(C(C)(C)C)oc1C(=O)N1CCN(C(=O)c2oc(C(C)(C)C)cc2C)CC1
N

Next molecule up: CNC(=O)c1nnsc1S(=O)(=O)c1ccc(Cl)cc1
N

Next molecule up: O=C1c2ccccc2C(=O)c2c1oc(C(F)(F)F)c2C(=O)c1ccccc1
N

Next molecule up: CCOc1cccc(CN2CCN(c3cccc(C(F)(F)F)c3)CC2)c1O
N

Next molecule up: COC(=O)/C(=C1/Oc2cc(C)oc(=O)c2S1)C(F)(F)F
Y

Next molecule up: CC(C)COc1ccc(/C(=N/O)c2ccccc2)cc1
N

Next molecule up: CCc1ccc(/C=c2\s/c(=C\C(=O)C(C)(C)C)[nH]c2=O)cc1
N

Next molecule up: Oc1ccc(Br)cc1-c1cc(-c2ccccc2F)[nH]n1
N

Next molecule up: CCOc1cc(S(=O)(=O)Nc2ccccc2CC)ccc1Cl
N

Next molecule up: O=C(/C=C\c1cn(-c2ccccc2)nc1-c1ccccc1)Nc1nccs1
N

Next molecule up: O=C1c2ccc3c4c(ccc(c24)C(=O)N1c1cccc(O)c1)C(=O)N(c1cccc(O)c1)C3=O
N

Next molecule up: S=C(Nc1ccccc1)Nc1ccc(OCc2ccc(Cl)cc2Cl)cc1
Y

Next molecule up: COc1cc(/C=C/C(=O)OC2CC3CCC2(C)C3(C)C)ccc1O (stereo not drawn)
N

Next molecule up: CC(C)=CCCC1(C)C=Cc2c(c(C)cc3c2[nH]c2cc(O)ccc23)O1 (stereo not drawn)
N

Next molecule up: O=C(Nc1ccc(Cl)c(C(F)(F)F)c1)NC1CC2CCCC(C1)N2Cc1ccccc1 (stereo not drawn)
N

Next molecule up: CC(C)c1nnc(NC(=O)c2c(O)c3cccc4c3n(c2=O)CCC4)s1
Y

Next molecule up: CCCCCn1c(SCCC(C)C)nc2c1c(=O)[nH]c(=O)n2C
N

Next molecule up: O=C(O)CSCC(=O)Nc1ccc(C2CCCCC2)cc1
N

Next molecule up: C=C(C)COc1ccc(-c2n[nH]c(C)c2Oc2ccccc2OC)c(O)c1
N

Next molecule up: C/C(=N\NC(=O)c1nn(C)c(C)c1Br)c1ccc(NC(=O)c2ccoc2C)cc1
N
